Could you please report measured GI50 for the items listed next?
# Tested Target: BA/F3-KRAS(G12D) murine pro-B cell line stably expressing KRAS(G12D) (Homo sapiens, UniProt P01116, G12D, cells depend on it)
# Sequence (P01116 whole entry G12D): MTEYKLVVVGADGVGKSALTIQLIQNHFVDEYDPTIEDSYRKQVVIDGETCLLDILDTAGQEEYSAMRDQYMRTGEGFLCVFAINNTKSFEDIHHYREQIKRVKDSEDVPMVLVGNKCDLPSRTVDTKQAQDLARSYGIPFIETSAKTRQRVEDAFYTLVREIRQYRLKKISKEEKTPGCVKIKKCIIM
# Test Summary: CellTiter-Glo cancer cell line proliferation assay, BA/F3-KRAS(G12D)
# Type: cell-based
# Applied Conditions: 24 hr, read-out: BAF3 at 24 hrs, IC50
Structures can show the parent of a compound that is named as a salt.

Ask | Looking for the measured GI50 of CN1C[C@@H](N2CCC(C(=O)NCCOCCOc3ccc4c(c3)C(=O)N(C3CCC(=O)NC3=O)C4=O)CC2)C[C@H]1COc1nc(N2CC3CCC(C2)N3)c2cnc(-c3cccc4ccccc34)c(F)c2n1 (some centres unmarked) [Compound 21, formate] , can you help?
Reply | > 1000 nM

Ask | Looking for the measured GI50 of C#Cc1cccc2cccc(-c3ncc4c(N5CC6CCC(C5)N6)nc(OCC5(CN6CCN(Cc7ccc8c(c7)CN(C7CCC(=O)NC7=O)C8=O)CC6)CC5)nc4c3F)c12 (centres unmarked) [Compound 31, formate] , can you help?
Reply | > 1000 nM

Ask | Looking for the measured GI50 of C#Cc1cccc2cccc(-c3ncc4c(N5CC6CCC(C5)N6)nc(OC[C@@H]5CC[C@H](CN6CCN(Cc7ccc8c(c7)C(=O)N(C7CCC(=O)NC7=O)C8=O)CC6)N5C)nc4c3F)c12 (some centres unmarked) [Compound 15, formate] , can you help?
Reply | > 1000 nM

Ask | Looking for the measured GI50 of C#Cc1cccc2cccc(-c3ncc4c(N5CC6CCC(C5)N6)nc(OCCC5CCN(CC6CCN(c7cccc8c7C(=O)N(C7CCC(=O)NC7=O)C8=O)CC6)CC5)nc4c3F)c12 (centres unmarked) [Compound 3, hydrochloride] , can you help?
Reply | 100 to 1000 nM

Ask | Looking for the measured GI50 of C#Cc1cccc2cccc(-c3ncc4c(N5CC6CCC(C5)N6)nc(OC[C@@H]5C[C@H](N6CCN(CC7CCN(c8ccc9c(c8)C(=O)N(C8CCC(=O)NC8=O)C9=O)CC7)CC6)CN5C)nc4c3F)c12 (some centres unmarked) [Compound 5, hydrochloride] , can you help?
Reply | 100 to 1000 nM
